measured_target: proliferating cell nuclear antigen (PCNA) (UniProt P12004 1-261)
Sequence (P12004 whole entry): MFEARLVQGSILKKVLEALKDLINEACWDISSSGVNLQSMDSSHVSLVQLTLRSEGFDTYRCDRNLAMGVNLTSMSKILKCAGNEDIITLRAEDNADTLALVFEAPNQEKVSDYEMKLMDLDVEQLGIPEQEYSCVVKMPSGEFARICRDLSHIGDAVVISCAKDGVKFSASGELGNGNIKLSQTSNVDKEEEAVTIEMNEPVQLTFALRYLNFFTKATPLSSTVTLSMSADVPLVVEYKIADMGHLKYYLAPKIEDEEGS
assay_comment: ITC
readout_kind: stoichiometry N

                                     binder  result
0  Ac-RKRRQTSMTDFYHSKRR-NH2 [p21_(140–156) peptide (wild-type p21 PIP-degron with flanking regions)]    0.86

Problem: Given Ac-RRRRQTSMTDFYHSRRR-NH2 [p21_(All–R) peptide] , state its recorded stoichiometry N.
Result: 0.73

Problem: Which stoichiometry N value belongs to Ac-KKKKQTSMTDFYHSKKK-NH2 [p21_(All–K) peptide] ?
Result: 0.75

Problem: Recorded stoichiometry N for Ac-KRKKQTSMTDFYHSRKK-NH2 [p21_(SWAP) peptide] , please?
Result: 0.79
